B1: TPR 5TU (parent)
chain: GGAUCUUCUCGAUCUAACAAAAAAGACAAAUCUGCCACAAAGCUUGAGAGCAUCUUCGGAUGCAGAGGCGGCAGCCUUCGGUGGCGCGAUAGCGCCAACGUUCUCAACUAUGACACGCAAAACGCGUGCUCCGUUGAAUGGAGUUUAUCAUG

Variants of: B1
Assay: polymerase ribozyme fitness, log enrichment relative to wild type (log ratio); higher = more active; in vitro selection for triplet polymerase activity
Fewer inactive variants are shown than the library holds.
Outcome label depends on polymerase ribozyme fitness (log ratio) relative to -2: at/above gives t, below gives f.

**Q:** Answer whether polymerase ribozyme fitness (log ratio) of A98G A121G is greater than or equal to -2.
**A:** t

**Q:** Could you do the same for U13A C69A A120C , please?
**A:** f

**Q:** Lookup A40C C96U
**A:** t
